- TARGET ENTITY: C. elegans UNC-13 long isoform residues 1-258 bearing the K49E mutation (C. elegans)
- PROTOCOL DETAILS: ITC
MEASURED ENDPOINT: Kd (nM)
Answers are plain numbers, in nM.

Measured Kd of C. elegans UNC-10 residues 62-121 WT (domain or fragment) KLVGTQDDAICQICQKTKFADGIGHKCFYCQLRSCARCGGRAQSKNKAIWACSLCQKRQQ : 1290
